Ref: patent US5434266A

Target: bovine liver β-galactosidase (Bos taurus, UniProt F1MNT6)
Construct: from tissue; host or cells: bovine liver
Test: Glycosidase inhibition / KI determination, bovine liver β-galactosidase
Format: biochemical
Conditions: pH 7.0, read-out: KI β-gal pH 7.0
Protocol: pH for Enzyme Assays--Yeast e-glucosidase and green coffee bean α-galactosidase were assayed at pH 6.6. Almond β-glucosidase and jackbean α-mannosidase were assayed at pH 5.0. Bovine liver β-galactosidase was assayed at pH 7.0. […] An acceptable concentration of enzyme, upon hydrolysis of the corresponding glycoside, should give an absorbance reading between 0.4 and 2.0 at 400 nm. […] The absorbance of the resulting solution was measure at 400 nm. […]
assay-readout: pKi
Formally, pKi is defined as -log10 of the concentration c, with c in mol/L.

Enter reported pKi observed with bovine liver β-galactosidase (Bos taurus, UniProt F1MNT6) for NNC1=N[C@H](CO)[C@@H](O)[C@H](O)[C@H]1O 4.72

Enter reported pKi observed with bovine liver β-galactosidase (Bos taurus, UniProt F1MNT6) for NNC1=N[C@H](CO)[C@@H](O)[C@H](O)[C@@H]1O 4.24

----------
biological target: almond β-glucosidase; experiment: Glycosidase inhibition / KI determination, almond β-glucosidase; details: pH 5.0, read-out: KI β-Glu pH 5.0
Below, each entry is listed alongside its reported Ki.
Dear colleague, please return just the value in µM, with no unit written.

molecule	value-measured
CN(C)C1=N[C@H](CO)[C@@H](O)[C@H](O)[C@H]1O	83

Look at this molecule and give its reported Ki. NC1=N[C@H](CO)[C@@H](O)[C@H](O)[C@H]1O 8

Look at this molecule and give its reported Ki. NNC1=N[C@H](CO)[C@@H](O)[C@H](O)[C@@H]1O 205

Look at this molecule and give its reported Ki. NNC1=N[C@H](CO)[C@@H](O)[C@H](O)[C@H]1O 8.4

Look at this molecule and give its reported Ki. OC[C@H]1NC(O)[C@H](O)[C@@H](O)[C@@H]1O (stereo partly drawn) [Nojirimycin, nojirimycin, reference compound] 380

Look at this molecule and give its reported Ki. OC[C@H]1N=C(NO)[C@H](O)[C@@H](O)[C@@H]1O 13.8

----------
Below, each entry is listed alongside its reported Ki.
Target: bovine liver β-galactosidase (Bos taurus, UniProt F1MNT6)
Construct: from tissue; host or cells: bovine liver
Sequence (F1MNT6 1-469): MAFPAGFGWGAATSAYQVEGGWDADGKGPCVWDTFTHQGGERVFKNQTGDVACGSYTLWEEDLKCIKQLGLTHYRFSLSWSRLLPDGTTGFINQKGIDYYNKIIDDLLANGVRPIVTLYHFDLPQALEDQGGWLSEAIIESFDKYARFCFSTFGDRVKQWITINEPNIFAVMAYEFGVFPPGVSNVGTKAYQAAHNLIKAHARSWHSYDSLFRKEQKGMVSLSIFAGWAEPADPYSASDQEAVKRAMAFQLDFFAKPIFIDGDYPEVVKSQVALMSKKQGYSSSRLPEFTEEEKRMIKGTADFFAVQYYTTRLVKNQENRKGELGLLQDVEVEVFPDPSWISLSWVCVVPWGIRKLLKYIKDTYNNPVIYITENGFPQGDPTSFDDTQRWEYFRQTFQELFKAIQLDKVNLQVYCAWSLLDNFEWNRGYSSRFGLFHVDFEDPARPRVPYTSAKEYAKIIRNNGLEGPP
Assay: Glycosidase inhibition / KI determination, bovine liver β-galactosidase
Format: biochemical
Conditions: pH 7.0, read-out: β-gal pH 7.0 (class)
Method: pH for Enzyme Assays--Yeast e-glucosidase and green coffee bean α-galactosidase were assayed at pH 6.6. Almond β-glucosidase and jackbean α-mannosidase were assayed at pH 5.0. Bovine liver β-galactosidase was assayed at pH 7.0. […] An acceptable concentration of enzyme, upon hydrolysis of the corresponding glycoside, should give an absorbance reading between 0.4 and 2.0 at 400 nm. […] The absorbance of the resulting solution was measure at 400 nm. […]

Known Ki results, listed for orientation:
compound	system-under-test	Ki
CN(C)C1=N[C@H](CO)[C@@H](O)[C@H](O)[C@H]1O	bovine liver β-galactosidase (Bos taurus, UniProt F1MNT6)	< 100 µM
NC1=N[C@H](CO)[C@@H](O)[C@H](O)[C@H]1O	bovine liver β-galactosidase (Bos taurus, UniProt F1MNT6)	< 100 µM

Look at this compound and give its reported Ki. OC[C@H]1NC(O)[C@H](O)[C@@H](O)[C@@H]1O (stereo partly drawn) [Nojirimycin, nojirimycin, reference compound] > 1000 µM

----------
biological target: jackbean α-mannosidase (Canavalia ensiformis, UniProt C0HJB3); construct: host or cells: jack bean; assay: Glycosidase inhibition / KI determination, jackbean α-mannosidase; assay type: biochemical; details: pH 5.0, read-out: KI α-man pH 5.0
Sequence (C0HJB3 whole entry): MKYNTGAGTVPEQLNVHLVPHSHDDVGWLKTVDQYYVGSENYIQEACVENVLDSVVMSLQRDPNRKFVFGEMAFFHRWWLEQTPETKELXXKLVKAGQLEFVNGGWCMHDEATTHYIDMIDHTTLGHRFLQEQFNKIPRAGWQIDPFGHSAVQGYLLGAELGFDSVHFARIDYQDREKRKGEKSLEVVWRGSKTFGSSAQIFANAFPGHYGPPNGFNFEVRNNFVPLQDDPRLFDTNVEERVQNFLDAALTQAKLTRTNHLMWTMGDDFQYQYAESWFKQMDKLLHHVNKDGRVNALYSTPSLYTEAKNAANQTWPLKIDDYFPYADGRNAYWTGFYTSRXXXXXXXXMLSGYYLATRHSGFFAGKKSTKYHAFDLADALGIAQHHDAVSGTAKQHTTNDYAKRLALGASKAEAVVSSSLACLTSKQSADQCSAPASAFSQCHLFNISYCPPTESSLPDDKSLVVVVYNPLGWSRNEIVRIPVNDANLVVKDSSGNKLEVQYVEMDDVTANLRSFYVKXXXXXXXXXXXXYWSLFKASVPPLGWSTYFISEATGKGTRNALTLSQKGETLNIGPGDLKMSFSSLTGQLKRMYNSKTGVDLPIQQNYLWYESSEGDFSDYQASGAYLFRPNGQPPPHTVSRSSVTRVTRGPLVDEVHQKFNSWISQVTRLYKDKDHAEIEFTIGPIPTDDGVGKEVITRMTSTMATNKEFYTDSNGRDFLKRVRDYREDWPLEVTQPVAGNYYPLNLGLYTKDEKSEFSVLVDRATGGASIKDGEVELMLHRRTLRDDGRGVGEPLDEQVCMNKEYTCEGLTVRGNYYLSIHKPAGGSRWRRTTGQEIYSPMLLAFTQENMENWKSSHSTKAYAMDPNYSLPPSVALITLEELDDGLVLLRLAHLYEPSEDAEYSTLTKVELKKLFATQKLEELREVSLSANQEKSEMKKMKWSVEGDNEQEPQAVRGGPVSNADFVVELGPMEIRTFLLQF
assay-readout: Ki (µM)
Dear colleague, please return just the value in µM, with no unit written.

Known Ki results, listed for orientation:
compound	system-under-test	Ki, µM
NNC1=N[C@H](CO)[C@@H](O)[C@H](O)[C@@H]1O [Compound 9, D-Mannoamidrazone]	jackbean α-mannosidase (Canavalia ensiformis, UniProt C0HJB3)	0.166
OC[C@H]1N=C(NO)[C@H](O)[C@@H](O)[C@@H]1O [Compound 13, D-Glucoamidoxime]	jackbean α-mannosidase (Canavalia ensiformis, UniProt C0HJB3)	10

Look at this compound and give its reported Ki. NC1=N[C@H](CO)[C@@H](O)[C@H](O)[C@H]1O [Compound 1, D-Glucoamidine] 9

Look at this compound and give its reported Ki. NNC1=N[C@H](CO)[C@@H](O)[C@H](O)[C@H]1O [Compound 8, D-Glucoamidrazone] 6.5

Look at this compound and give its reported Ki. OC[C@H]1N=C(NO)[C@@H](O)[C@@H](O)[C@@H]1O [Compound 15, D-Mannoamidoxime] 2

----------
Below, each entry is listed alongside its reported pKi.
biological target: A. niger amyloglucosidase (Aspergillus niger, UniProt P69328)
Sequence (P69328 25-640): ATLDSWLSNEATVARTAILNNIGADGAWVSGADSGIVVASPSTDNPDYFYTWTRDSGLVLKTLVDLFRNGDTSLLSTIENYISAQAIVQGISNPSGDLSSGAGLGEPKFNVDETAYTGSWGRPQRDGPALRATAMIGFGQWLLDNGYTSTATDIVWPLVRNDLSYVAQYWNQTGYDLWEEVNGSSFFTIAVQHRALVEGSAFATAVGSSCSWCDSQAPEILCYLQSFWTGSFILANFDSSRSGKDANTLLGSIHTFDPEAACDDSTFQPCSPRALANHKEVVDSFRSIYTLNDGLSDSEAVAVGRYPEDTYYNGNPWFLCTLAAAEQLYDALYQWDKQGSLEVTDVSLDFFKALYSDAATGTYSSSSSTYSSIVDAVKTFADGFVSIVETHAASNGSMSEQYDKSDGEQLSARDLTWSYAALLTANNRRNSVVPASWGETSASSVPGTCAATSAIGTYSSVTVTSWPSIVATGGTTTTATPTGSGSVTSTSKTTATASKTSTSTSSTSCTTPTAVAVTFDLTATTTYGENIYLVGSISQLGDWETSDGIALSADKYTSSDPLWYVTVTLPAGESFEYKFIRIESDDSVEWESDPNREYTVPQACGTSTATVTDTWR
pKi: −log10 of the molar value.

Known pKi results, listed for orientation:
compound	system-under-test	assay-readout	value-measured
CN(C)C1=N[C@H](CO)[C@@H](O)[C@H](O)[C@H]1O [Compound 2, D-Gluco-N,N-Dimethylamidine]	A. niger amyloglucosidase (Aspergillus niger, UniProt P69328)	pKi	< 3.00
OC[C@H]1NC(O)[C@H](O)[C@@H](O)[C@@H]1O (stereo partly drawn) [Nojirimycin, nojirimycin, reference compound]	A. niger amyloglucosidase (Aspergillus niger, UniProt P69328)	pKi	< 3.00

Look at this compound and give its reported pKi. NC1=N[C@H](CO)[C@@H](O)[C@H](O)[C@H]1O [Compound 1, D-Glucoamidine] < 3.00

----------
biological target: yeast α-glucosidase (Saccharomyces cerevisiae, UniProt P53341)
Sequence (P53341 whole entry): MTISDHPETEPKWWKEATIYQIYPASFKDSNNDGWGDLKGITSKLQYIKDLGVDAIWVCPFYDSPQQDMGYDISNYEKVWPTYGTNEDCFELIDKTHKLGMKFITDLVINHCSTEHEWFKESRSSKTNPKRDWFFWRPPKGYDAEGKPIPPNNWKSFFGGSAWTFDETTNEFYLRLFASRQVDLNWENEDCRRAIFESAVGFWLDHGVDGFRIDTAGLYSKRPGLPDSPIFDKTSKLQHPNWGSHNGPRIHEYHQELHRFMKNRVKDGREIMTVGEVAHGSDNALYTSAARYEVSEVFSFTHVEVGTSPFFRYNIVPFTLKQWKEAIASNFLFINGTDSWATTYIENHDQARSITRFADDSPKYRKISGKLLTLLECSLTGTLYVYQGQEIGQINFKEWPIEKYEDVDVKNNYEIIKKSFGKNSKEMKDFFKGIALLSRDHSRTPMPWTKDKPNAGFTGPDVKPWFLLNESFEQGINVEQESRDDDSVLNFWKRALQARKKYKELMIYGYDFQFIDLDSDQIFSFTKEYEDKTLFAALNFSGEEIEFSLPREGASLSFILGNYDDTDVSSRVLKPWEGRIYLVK
assay-readout: Ki (µM)
Dear colleague, please return just the value in µM, with no unit written.

Enter reported Ki observed with yeast α-glucosidase (Saccharomyces cerevisiae, UniProt P53341) for OC[C@H]1NC(O)[C@H](O)[C@@H](O)[C@@H]1O (stereo partly shown) [Nojirimycin, nojirimycin, reference compound] 13
